TEST TARGET: HLA-A*24 (human)
EXPERIMENTAL DETAILS: UV peptide exchange, anti-b2m ELISA
READOUT KIND: peptide exchange yield

// known answers, use as guide
[
  {
    "BINDER": "RYPDNLKHLYL [SEQ ID No 280 peptide …]",
    "peptide exchange yield": "> 75%"
  },
  {
    "BINDER": "PYRLIFEKF [SEQ ID No 281 peptide …]",
    "peptide exchange yield": "20 to 49%"
  },
  {
    "BINDER": "LYLDIINLF [SEQ ID No 181 peptide …]",
    "peptide exchange yield": "> 75%"
  },
  {
    "BINDER": "IYATEAHVF [SEQ ID No 201 peptide …]",
    "peptide exchange yield": "50 to 75%"
  },
  {
    "BINDER": "AYTLIAPNI [SEQ ID No 169 peptide …]",
    "peptide exchange yield": "50 to 75%"
  },
  {
    "BINDER": "LYNKGFIYL [SEQ ID No 159 peptide …]",
    "peptide exchange yield": "> 75%"
  },
  {
    "BINDER": "FFPPTRQMGLLF [SEQ ID No 217 peptide …]",
    "peptide exchange yield": "> 75%"
  }
]

# context switch: different binder, same peptide exchange yield
Lookup result for LYIDRPLPYL [SEQ ID No 196 peptide …] ; measured peptide exchange yield: 50 to 75%
